Test: Probe fluorescence ratio response to linolenic acid relative to ADIFAB2
Type: binding
Conditions: response relative to ADIFAB2
From the text: In an alternate preferred embodiment, the protein is rI-FABP that has Ala substituted for Leu at position 72 (rI-FABP-L72A) with the resulting probe named ADIFAB2. […] ADIFAB2 also has an altered spectral response, making it especially useful for measurements of FFAu in blood samples (Apple et al, Clinical Proteomics, (2004) 1:41-44, U.S. patent application Ser. No. 10/670,958). […] The baseline value for this ratio, measured in the absence of analyte, is designated R0. […]
# DR/DR LNA values compiled below

Molecule	DR/DR LNA
104I1, 72A (protein, listed as Rattus norvegicus, PEPTIDE (1)...(131) wild-type rat intestinal fatty acid binding protein) AFDGTWKVDRNENYEKFMEKMGINVVKRKLGAHDNLKLTITQEGNKFTVKESSNFRNIDVVFELGVDFAYSAADGTELTGTWTMEGNKLVGKFKRVDNGKELIIVREISGNELIQTYTYEGVEAKRIFKKE	0.30
49S1, 72A (protein, listed as Rattus norvegicus, PEPTIDE (1)...(131) wild-type rat intestinal fatty acid binding protein) AFDGTWKVDRNENYEKFMEKMGINVVKRKLGAHDNLKLTITQEGNKFTSKESSNFRNIDVVFELGVDFAYSAADGTELTGTWTMEGNKLVGKFKRVDNGKELIAVREISGNELIQTYTYEGVEAKRIFKKE	1.34
